B1: LINE1-full (parent)
chain: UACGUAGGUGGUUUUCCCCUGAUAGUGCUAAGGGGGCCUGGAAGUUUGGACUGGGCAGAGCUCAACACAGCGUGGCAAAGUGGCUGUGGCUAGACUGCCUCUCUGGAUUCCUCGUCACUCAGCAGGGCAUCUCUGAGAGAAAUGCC

- Variants of: B1
- assayText: self-cleavage, relative activity (ratio to wild type); higher = more cleavage; in vitro, sequencing; the parent is a self-cleaving ribozyme
valueKind: self-cleavage

[
  {
    "variant": "U81C U87A",
    "recordedMeasurement": 0.1
  },
  {
    "variant": "A67U U87A",
    "recordedMeasurement": 0.57
  },
  {
    "variant": "A50G A77U",
    "recordedMeasurement": 0.73
  },
  {
    "variant": "A107U A124U",
    "recordedMeasurement": 1.61
  },
  {
    "variant": "G33U A94G",
    "recordedMeasurement": 0.15
  },
  {
    "variant": "U13C C146U",
    "recordedMeasurement": 1.64
  },
  {
    "variant": "U73A A141G",
    "recordedMeasurement": 1.74
  },
  {
    "variant": "U20A A69U",
    "recordedMeasurement": 0.1
  },
  {
    "variant": "U85A U91C",
    "recordedMeasurement": 0.04
  },
  {
    "variant": "U12C C146U",
    "recordedMeasurement": 1.63
  },
  {
    "variant": "C28A A92G",
    "recordedMeasurement": 0.12
  },
  {
    "variant": "A24C A64U",
    "recordedMeasurement": 0.58
  },
  {
    "variant": "C131U A136G",
    "recordedMeasurement": 1.39
  }
]
